Biological target: human IP6K3 (Homo sapiens, UniProt Q96PC2)
Construct: human IP6K3 (1-410) gene; made in house; host or cells: BL21 (DE3) Escherichia coli
Sequence (Q96PC2 whole entry): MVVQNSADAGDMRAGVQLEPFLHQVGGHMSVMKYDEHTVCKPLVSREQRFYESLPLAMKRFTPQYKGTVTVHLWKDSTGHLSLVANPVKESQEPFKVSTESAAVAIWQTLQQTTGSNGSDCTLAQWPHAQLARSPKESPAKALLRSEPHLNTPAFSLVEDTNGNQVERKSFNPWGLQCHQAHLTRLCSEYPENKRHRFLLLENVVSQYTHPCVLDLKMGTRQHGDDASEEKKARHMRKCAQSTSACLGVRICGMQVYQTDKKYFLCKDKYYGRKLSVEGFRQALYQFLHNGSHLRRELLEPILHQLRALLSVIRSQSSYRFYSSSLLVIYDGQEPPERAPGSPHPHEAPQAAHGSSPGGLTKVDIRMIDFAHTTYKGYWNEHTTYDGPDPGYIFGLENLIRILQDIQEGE
Test: IP6K enzyme inhibitory assay (ADP-Glo Kinase Assay), human IP6K3
Format: biochemical
Conditions: compound concentration 0.1 μM; read-out: ADP-Glo method inhibitory rate (%) human IP6K3
Below, each entry is listed with its recorded inhibition at 0.1 µM.
Respond with the figure and its unit, in that order.

>>> measured_result("O=C(O)c1ccc2c(n1)[C@]1(CC[C@H](Oc3ccc(Cl)cc3C(F)(F)F)CC1)C(=O)N2")
"101%"
>>> measured_result("COc1cc(Cl)ccc1O[C@H]1CC[C@@]2(CC1)C(=O)Nc1ccc(C(=O)O)cc12")
"99%"

Could you now consider this next compound?
Input line: Tell me the measured inhibition at 0.1 µM of `O=C(O)c1ccc2c(c1)[C@]1(CC[C@@H](Oc3ccc(F)c(Cl)c3)CC1)C(=O)N2` , please.
Output line: 97%

* * *

Below, each entry is listed with its recorded inhibition at 0.1 µM.
Target: human IP6K2 (Homo sapiens, UniProt Q9UHH9)
Construct: human IP6K2 (1-426) gene; GST; made in house; host or cells: Sf-9 insect cells
Sequence (Q9UHH9 1-426): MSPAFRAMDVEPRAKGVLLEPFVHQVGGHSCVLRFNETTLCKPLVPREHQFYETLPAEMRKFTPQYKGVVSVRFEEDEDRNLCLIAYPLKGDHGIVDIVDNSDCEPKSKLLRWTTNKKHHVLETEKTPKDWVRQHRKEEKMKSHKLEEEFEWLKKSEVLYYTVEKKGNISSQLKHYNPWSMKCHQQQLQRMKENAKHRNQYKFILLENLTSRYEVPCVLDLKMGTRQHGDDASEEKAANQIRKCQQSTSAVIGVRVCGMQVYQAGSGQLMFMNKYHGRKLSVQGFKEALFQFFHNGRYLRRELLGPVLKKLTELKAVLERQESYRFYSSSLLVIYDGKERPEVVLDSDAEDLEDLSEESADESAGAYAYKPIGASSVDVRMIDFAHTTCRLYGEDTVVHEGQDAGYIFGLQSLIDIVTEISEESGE
Assay: IP6K enzyme inhibitory assay (ADP-Glo Kinase Assay), human IP6K2
Format: biochemical
Conditions: compound concentration 0.1 μM; read-out: ADP-Glo method inhibitory rate (%) human IP6K2
Experimental: IP6K Enzyme Inhibitory Assay Human IP6K3 enzyme was prepared by transducing human IP6K3 (1-410) gene into BL21 (DE3) Escherichia coli and purifying by Ni-NTA (nickel-nitrilotriacetic acid) affinity column. […] The IP6K enzyme inhibitory activity of the test compound was measured by the following experiment method and using ADP-Glo™ Kinase Assay (manufactured by Promega). […] After the reaction, the luminescence intensity was measured by a plate reader Envision (manufactured by PerkinElmer).
Give just the numeric value; % need not be written.

Input line: Tell me the measured inhibition at 0.1 µM of `Cc1nc(O[C@H]2CC[C@@]3(CC2)C(=O)Nc2ccc(C(=O)O)cc23)nc(C)c1Cl` , please.
Output line: 74

Input line: Tell me the measured inhibition at 0.1 µM of `Cc1ccc(O[C@H]2CC[C@@]3(CC2)C(=O)Nc2ccc(C(=O)O)cc23)c(F)c1` , please.
Output line: 100

Input line: Tell me the measured inhibition at 0.1 µM of `O=C(O)c1ccc2c(c1)[C@]1(CC[C@@H](Oc3cc(Cl)ccn3)CC1)C(=O)N2` , please.
Output line: 79

Input line: Tell me the measured inhibition at 0.1 µM of `O=C(O)c1ccc2c(c1)[C@]1(CC[C@@H](Oc3c(Cl)cc(Cl)cc3Cl)CC1)C(=O)N2` , please.
Output line: 101

* * *

Below, each entry is listed with its recorded inhibition at 0.1 µM.
Target: human IP6K2 (Homo sapiens, UniProt Q9UHH9)
Construct: human IP6K2 (1-426) gene; GST; made in house; host or cells: Sf-9 insect cells
Sequence (Q9UHH9 1-426): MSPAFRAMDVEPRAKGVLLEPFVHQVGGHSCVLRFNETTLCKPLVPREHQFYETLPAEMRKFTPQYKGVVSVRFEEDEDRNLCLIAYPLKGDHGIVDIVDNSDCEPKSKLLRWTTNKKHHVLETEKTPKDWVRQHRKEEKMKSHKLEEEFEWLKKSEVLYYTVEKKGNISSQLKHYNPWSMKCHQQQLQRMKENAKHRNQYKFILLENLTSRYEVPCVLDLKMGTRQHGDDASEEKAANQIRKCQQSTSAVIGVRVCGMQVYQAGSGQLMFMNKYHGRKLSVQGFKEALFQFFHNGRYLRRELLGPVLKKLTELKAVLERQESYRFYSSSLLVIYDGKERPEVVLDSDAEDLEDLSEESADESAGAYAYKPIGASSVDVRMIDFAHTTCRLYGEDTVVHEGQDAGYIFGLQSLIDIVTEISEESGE
Assay: IP6K enzyme inhibitory assay (ADP-Glo Kinase Assay), human IP6K2
Format: biochemical
Details: compound concentration 0.1 μM; read-out: ADP-Glo method inhibitory rate (%) human IP6K2
Give just the numeric value; % need not be written.

Sample records with inhibition at 0.1 µM:
>>> measured_result("N#Cc1ccccc1O[C@H]1CC[C@@]2(CC1)C(=O)Nc1ccc(C(=O)O)cc12 [Example 44]")
83
>>> measured_result("Cc1cc(O[C@H]2CC[C@@]3(CC2)C(=O)Nc2ccc(C(=O)O)cc23)ccc1F [Example 51]")
97
>>> measured_result("O=C(O)c1ccc2c(c1)[C@]1(CC[C@@H](Oc3ncc(F)cc3F)CC1)C(=O)N2 [Example 4]")
79
>>> measured_result("O=C(O)c1ccc2c(c1)[C@]1(CC[C@@H](Oc3cccc(C(F)(F)F)c3)CC1)C(=O)N2 [Example 75]")
94
>>> measured_result("Cc1ccc(O[C@H]2CC[C@@]3(CC2)C(=O)Nc2ccc(C(=O)O)cc23)cn1 [Example 34]")
76

Input line: // lookup inhibition at 0.1 µM | system=human IP6K2 (Homo sapiens, UniProt Q9UHH9) | key= O=C(O)c1ccc2c(c1)[C@]1(CC[C@@H](Oc3cc(F)cc(F)c3)CC1)C(=O)N2 [Example 58]
Output line: 83

Input line: // lookup inhibition at 0.1 µM | system=human IP6K2 (Homo sapiens, UniProt Q9UHH9) | key= O=C(O)c1ccc2c(c1)[C@]1(CC[C@@H](Oc3cc(F)ccc3F)CC1)C(=O)N2 [Example 56]
Output line: 92

Input line: // lookup inhibition at 0.1 µM | system=human IP6K2 (Homo sapiens, UniProt Q9UHH9) | key= O=C(O)c1ccc2c(c1)[C@]1(CC[C@@H](Oc3ccc(Cl)cc3F)CC1)C(=O)N2 [Example 66]
Output line: 100

Input line: // lookup inhibition at 0.1 µM | system=human IP6K2 (Homo sapiens, UniProt Q9UHH9) | key= Cc1cc(C(F)(F)F)cnc1O[C@H]1CC[C@@]2(CC1)C(=O)Nc1ccc(C(=O)O)nc12 [Example 112]
Output line: 90

Input line: // lookup inhibition at 0.1 µM | system=human IP6K2 (Homo sapiens, UniProt Q9UHH9) | key= COc1ccc(O[C@H]2CC[C@@]3(CC2)C(=O)Nc2ccc(C(=O)O)cc23)cc1 [Example 49]
Output line: 99

* * *

Below, each entry is listed with its recorded inhibition at 0.1 µM.
Molecular target: human IP6K1 (Homo sapiens, UniProt Q92551)
Construct: human IP6K1 (1-441) gene; GST; made in house; host or cells: Sf-9 insect cells
Sequence (Q92551 whole entry): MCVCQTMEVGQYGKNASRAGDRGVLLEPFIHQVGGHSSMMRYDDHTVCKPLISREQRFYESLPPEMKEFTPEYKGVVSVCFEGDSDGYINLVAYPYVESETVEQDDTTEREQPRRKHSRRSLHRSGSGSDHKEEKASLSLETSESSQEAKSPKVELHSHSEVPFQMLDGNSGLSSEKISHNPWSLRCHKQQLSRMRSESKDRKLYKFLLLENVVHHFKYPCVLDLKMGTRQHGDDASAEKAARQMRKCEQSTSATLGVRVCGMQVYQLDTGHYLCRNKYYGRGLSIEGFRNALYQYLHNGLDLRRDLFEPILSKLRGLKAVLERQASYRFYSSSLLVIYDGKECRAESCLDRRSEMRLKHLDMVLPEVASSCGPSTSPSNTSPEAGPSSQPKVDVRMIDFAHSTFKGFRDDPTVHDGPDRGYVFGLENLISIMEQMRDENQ
Assay: IP6K enzyme inhibitory assay (ADP-Glo Kinase Assay), human IP6K1
Type: biochemical
Details: compound concentration 0.1 μM; read-out: ADP-Glo method inhibitory rate (%) human IP6K1
Give just the numeric value; % need not be written.

Sample records with inhibition at 0.1 µM:
>>> measured_result("Cc1cccc(O[C@H]2CC[C@@]3(CC2)C(=O)Nc2ccc(C(=O)O)cc23)c1 [Example 42]")
81
>>> measured_result("O=C(O)c1ccc2c(c1)[C@]1(CC[C@@H](Oc3ccccc3C(F)(F)F)CC1)C(=O)N2 [Example 74]")
93
>>> measured_result("O=C(O)c1ccc2c(n1)[C@]1(CC[C@@H](Oc3ncc(C4CC4)cc3Cl)CC1)C(=O)N2 [Example 16]")
99
>>> measured_result("O=C(O)c1ccc2c(c1)[C@]1(CC[C@@H](Oc3ccc(Cl)c(F)c3)CC1)C(=O)N2 [Example 69]")
100

Input line: Tell me the measured inhibition at 0.1 µM of O=C(O)c1ccc2c(n1)[C@]1(CC[C@@H](Oc3ccc(Cl)cc3C(F)(F)F)CC1)C(=O)N2 [Example 95] , please.
Output line: 88

* * *

Target: human IP6K2 (Homo sapiens, UniProt Q9UHH9)
Construct: human IP6K2 (1-426) gene; GST; made in house; host or cells: Sf-9 insect cells
Test: IP6K enzyme inhibitory assay (ADP-Glo Kinase Assay), human IP6K2
Assay type: biochemical
Details: compound concentration 0.1 μM; read-out: ADP-Glo method inhibitory rate (%) human IP6K2
READOUT KIND: inhibition at 0.1 µM

Sample records with inhibition at 0.1 µM:
>>> measured_result("O=C(O)c1ccc2c(n1)[C@]1(CC[C@@H](Oc3ccc(Cl)cc3C(F)(F)F)CC1)C(=O)N2 [Example 95]")
"91%"
>>> measured_result("O=C(O)c1ccc2c(c1)[C@]1(CC[C@@H](Oc3cc(OCc4ccccc4)ccn3)CC1)C(=O)N2 [Example 30]")
"84%"

Could you now consider this next compound?
Input line: Tell me the measured inhibition at 0.1 µM of O=C(O)c1ccc2c(c1)[C@]1(CC[C@@H](Oc3ccc(C(F)(F)F)cc3)CC1)C(=O)N2 [Example 10] , please.
Output line: 100%

Origin of measurements: patent US10968178B2
